Target: T1, human AXL expressed on the cell surface of tumor cell lines (human, UniProt P30530 26-894)
T1 sequence (looked up): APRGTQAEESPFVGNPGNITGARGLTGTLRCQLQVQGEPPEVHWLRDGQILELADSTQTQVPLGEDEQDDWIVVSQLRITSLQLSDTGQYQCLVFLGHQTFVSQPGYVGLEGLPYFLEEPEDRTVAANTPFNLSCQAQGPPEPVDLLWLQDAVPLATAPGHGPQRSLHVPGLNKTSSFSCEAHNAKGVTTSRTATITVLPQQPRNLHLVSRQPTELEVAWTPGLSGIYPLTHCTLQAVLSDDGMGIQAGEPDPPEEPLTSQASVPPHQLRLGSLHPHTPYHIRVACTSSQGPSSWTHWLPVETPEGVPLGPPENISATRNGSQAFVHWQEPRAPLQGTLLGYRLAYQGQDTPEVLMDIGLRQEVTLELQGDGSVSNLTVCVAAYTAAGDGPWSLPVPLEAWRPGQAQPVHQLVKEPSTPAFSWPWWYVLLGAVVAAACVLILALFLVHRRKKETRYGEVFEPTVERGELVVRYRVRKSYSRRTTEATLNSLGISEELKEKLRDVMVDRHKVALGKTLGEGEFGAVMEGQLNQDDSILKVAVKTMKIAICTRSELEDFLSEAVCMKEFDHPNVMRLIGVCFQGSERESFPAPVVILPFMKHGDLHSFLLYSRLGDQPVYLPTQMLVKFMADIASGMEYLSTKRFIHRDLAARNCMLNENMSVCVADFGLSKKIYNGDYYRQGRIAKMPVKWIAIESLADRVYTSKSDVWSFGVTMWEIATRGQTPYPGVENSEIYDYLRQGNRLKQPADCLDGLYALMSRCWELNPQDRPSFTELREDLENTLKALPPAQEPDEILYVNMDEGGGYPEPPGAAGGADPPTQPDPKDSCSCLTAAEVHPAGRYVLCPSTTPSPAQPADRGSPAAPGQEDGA
Assay: cell-based or functional assay
Recorded IC50 of growth inhibition (CellTiterGlo, 5 days) of NCI-H292 cells, -Gas6 values for a group of binders are listed next.
ASSAY_ENDPOINT: IC50 of growth inhibition (CellTiterGlo, 5 days) of NCI-H292 cells, -Gas6 (nM)

[[record]]
binder = "mIgG-F155-3C7-DM1 (antibody, V domains shown, DM1 through SMCC linker on lysine residues of the antibody; sites not given) VH: QVQLQQPGTELVKPGASVKLSCKASGYIFTNFWINWVKQRPGQGLEWIGNIFPGSNSSNYNEKFKNKATLTVDKSSSTAYMHLSSLTSEDSAVYYCVRDYYGGSPDYWGQGTTLTVSS VL: DIVMSQSPSSLAVSAGEKVTMSCKSSQSLLNSKTRKNYLAWYQQKPGQSPKLLIYWASTRESGVPARFTGSGSGTDFTLTISSVQAEDLAIYYCKHSYNLWTFGGGTKLEIR"
unit_label = "nM"
value_measured = 0.327

[[record]]
binder = "hFc-F107-10G1-DM1 (antibody, human IgG1, kappa, V domains shown, DM1 through SMCC linker on lysine residues; sites not given) VH: EVNLVESGGGVVKPGASLKLSCEASGFTFSNYGMSWVRQTSDKRLEWVASISGGGGRTYYLDNVKGRFIISRENAKNTLYLQMSSLKSEDTALFYCARGARASYFAMDYWGQGSSVTVSS VL: VIVMTQSHKFMSTSVGDRVSITCKASQDVTTAVAWYQQKPGQSPKLLIYWASTRHTGVPDRFTGSGSGTDYSLTISNVQTEDLAFYYCQQHFTTPLTFGAGTKLELKR"
unit_label = "nM"
value_measured = 0.013

[[record]]
binder = "hFc-F107-8D12-DM1 (antibody, human IgG1, kappa, V domains shown, DM1 through SMCC linker on lysine residues; sites not given) VH: QVQLQQPGAELVKPGASVQLSCKASGYTFISFWINWVKQRPGQGLEWMGNIFPGSSSTNYNEKFKSKATLTVDKSSSTAYMQLSSLTSEDSAVYFCARDYYGGSPDYWGQGTTLTVSS VL: DIVMSQSPSSLAVSAGERVTMSCKSSQSLLNTRTRKNYLAWYQQKPGQSPKLLIYWASTRESGVPDRFTGSGSGTDFTLTISSVQAEDLAVYYCKQSYNLWTFGGGTKLEIKR"
unit_label = "nM"
value_measured = 0.011

